# Tested On: human mGlu2 receptor (Homo sapiens)
# Construct: expressed in transfected cells; host or cells: CHO cells (membrane preparation)
# Sequence (Q14416 19-872): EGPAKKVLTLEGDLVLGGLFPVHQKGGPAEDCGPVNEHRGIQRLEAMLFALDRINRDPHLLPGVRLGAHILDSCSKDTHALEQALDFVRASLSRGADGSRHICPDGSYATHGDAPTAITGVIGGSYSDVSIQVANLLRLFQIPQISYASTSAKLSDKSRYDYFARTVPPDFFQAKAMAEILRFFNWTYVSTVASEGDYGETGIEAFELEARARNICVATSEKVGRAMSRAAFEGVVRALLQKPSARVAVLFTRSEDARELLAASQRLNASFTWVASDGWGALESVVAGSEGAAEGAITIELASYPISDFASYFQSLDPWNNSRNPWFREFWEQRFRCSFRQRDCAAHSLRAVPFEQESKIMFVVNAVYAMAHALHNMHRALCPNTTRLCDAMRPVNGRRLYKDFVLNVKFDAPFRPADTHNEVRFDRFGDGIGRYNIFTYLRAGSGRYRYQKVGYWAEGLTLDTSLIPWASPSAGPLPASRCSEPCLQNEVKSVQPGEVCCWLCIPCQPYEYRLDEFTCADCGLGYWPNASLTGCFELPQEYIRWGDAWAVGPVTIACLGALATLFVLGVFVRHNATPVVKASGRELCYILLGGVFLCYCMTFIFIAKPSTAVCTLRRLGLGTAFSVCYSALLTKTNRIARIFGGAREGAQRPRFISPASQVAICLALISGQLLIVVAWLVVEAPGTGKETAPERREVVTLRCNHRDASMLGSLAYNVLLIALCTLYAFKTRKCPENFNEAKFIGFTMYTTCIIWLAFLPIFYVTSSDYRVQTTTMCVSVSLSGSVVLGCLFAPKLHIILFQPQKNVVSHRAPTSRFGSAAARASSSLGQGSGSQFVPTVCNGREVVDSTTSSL
# Assay: [35S]GTPγS binding assay (mGluR2 negative allosteric modulation)
# Format: biochemical
# Particulars: membranes from CHO cells transfected with human mGlu2 receptor; glutamate 60 μM; pIC50 = −log IC50 (M); read-out: GTPγS - hmGluR2 anGT pIC50 (converted)
Metric Name: IC50 (M)

Worked cases, IC50 given:
In [3]: df
Out[3]:
                                   compound  endpoint_result
0  C[C@H]1CN(c2ccc(C(F)(F)F)cc2)C(=O)c2c(-c3ccc(C#N)nc3)cnn21 [compound 151]          1.2e-06
1  Cc1cc(-c2cnn3c2C(=O)N(c2cc(Cl)c(C(F)(F)F)cn2)C[C@@H]3C)ccn1 [compound 204]          4.9e-09
2  CCOc1nc(N2C[C@H](C)n3ncc(-c4ccnc(C)c4)c3C2=O)ccc1C(F)(F)F [compound 189]         4.07e-08
3  CC(=O)N1CC(c2ccc(-c3cnn4c3C(=O)N(c3ccc(C(F)(F)F)cc3)C[C@@H]4C)cn2)C1 [compound 235]         1.26e-06
4  CCNc1cc(-c2cnn3c2C(=O)N(c2ccc(Cl)c(Cl)c2)C[C@@H]3C)ccn1 [compound 257]         3.63e-09

[a] CNc1cc(-c2cnn3c2C(=O)N(c2ccc(C(F)(F)F)cc2)C[C@@H]3C)cc(OC)n1 [compound 242]
[b] CNc1cc(-c2cnn3c2C(=O)N(c2ccc(C(F)(F)F)c(C#N)c2)C[C@@H]3C)ccn1 [compound 179]
[c] C[C@H]1CN(c2ccc(C(F)(F)F)c(C#N)c2)C(=O)c2c(-c3ccncc3)cnn21 [compound 155]
[d] Cc1cc(-c2cnn3c2C(=O)N(c2ccc(C(F)(F)F)c(C)n2)C[C@@H]3C)ccn1 [compound 192]
[e] Cc1cc(-c2cnn3c2C(=O)N(c2ccc(C(F)(F)F)c(Cl)c2)C[C@@H]3C)cc(C)n1 [compound 43]
Query :: Exam item: list the entries in increasing order of IC50. Reply with the labels, ordered as the question asks.
Result :: e, d, a, b, c
(e: 2.88e-09 M, d: 7.41e-09 M, a: 1.29e-08 M, b: 3.63e-08 M, c: 8.13e-08 M)
